B1: OR4K15 (parent)
chain: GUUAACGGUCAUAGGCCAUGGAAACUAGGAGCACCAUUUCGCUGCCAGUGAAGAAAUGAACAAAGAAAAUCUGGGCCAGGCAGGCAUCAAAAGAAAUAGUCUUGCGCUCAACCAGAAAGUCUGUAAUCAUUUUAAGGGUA

Variants of: B1
Test: self-cleavage, relative activity (ratio to wild type); higher = more cleavage; in vitro, sequencing; the parent is a self-cleaving ribozyme
observationType: self-cleavage
Just the number, please.

Reference set, count: 4
>  <variantString>
A55G G119C

>  <testResult>
1.03

$$$$
>  <variantString>
A47G G138A

>  <testResult>
1.31

$$$$
>  <variantString>
A67G A78U

>  <testResult>
0.33

$$$$
>  <variantString>
A5U U130C

>  <testResult>
0.85

$$$$

Problem: Provide one value: measured self-cleavage of A54G U122A
Result: 1.72

Problem: Provide one value: measured self-cleavage of U39C A52G
Result: 1.76

Problem: Provide one value: measured self-cleavage of C42U U108A
Result: 0

Problem: Provide one value: measured self-cleavage of A92G A94U
Result: 2.13

Problem: Provide one value: measured self-cleavage of A95G A114C
Result: 0.06
